Reference for the values: PubChem BioAssay AID463173

The compounds listed here are annotated with their survival.
- Tested on: DeltatarO mutant
- PROCEDURE DETAILS: S. aureus survival, RN4220 and DeltatarO strains – OD600, teichoic acid synthesis inhibitors, primary screen (AID 463173)
- EXPERIMENTAL CONDITIONS: S. aureus RN4220 wild type/DeltatarO growth, OD600, 18 h, hits give low values, screened at 18.75 µg/mL (by protocol)
Out of some 52,000 compounds screened, about 4,300 (8.3%) were called active. The full list was thinned out, with actives kept by preference.
Give the number; % is assumed, so skip it.

These recorded examples may help you get a feel for the data.
CC(=O)Nc1nonc1-c1nnc(SCC(=O)Nc2cccc(F)c2)n1-c1ccccc1: 19
Cc1ccc(Cn2c(=O)c3ccccc3n3c(-c4ccccc4)nnc23)cc1: 86
CCCn1c2ccccc2c2cnn(CC(=O)N(CCCOC(C)C)Cc3ccco3)c(=O)c21: 87
Cc1cc(C)cc(OCC(=O)Nc2c(C(=O)c3ccccc3)oc3ccccc23)c1: 92
COc1cccc2sc(N(Cc3cccnc3)C(=O)c3ccc4c(c3)OCCO4)nc12: 72

Turning now to a further compound:
Q: If you can, please state the reported survival value of CCOc1ccc(C2CC(=O)Nc3nc(SCc4ccccc4C)[nH]c(=O)c32)cc1OC (stereo unspecified) .
A: 103

---

- System: DeltatarO mutant
- PROCEDURE DETAILS: S. aureus survival, RN4220 and DeltatarO strains – OD600, teichoic acid synthesis inhibitors, primary screen (AID 463173)
- EXPERIMENTAL CONDITIONS: S. aureus RN4220 wild type/DeltatarO growth, OD600, 18 h, screened at 18.75 µg/mL (by protocol)
The whole screen tested about 52,000 compounds, of which about 4,300 (8.3%) were called active. Rule as the data show it: active = survival mostly below about 52% (no sharp cut-off); inactive = mostly above about 56%. Shown is part of a subset that was picked to be rich in actives.
Just give me one of these, please: active, inactive

Solved entries (count: 6):
CCOCCCN(Cc1ccco1)C(=O)c1cc2c(s1)-c1c(C)cccc1OC2: active
COc1ccc(CNC(=O)c2cc3c(s2)-c2c(C)cccc2OC3)cc1: inactive
Cc1ccc(NC(=O)CCC(=O)N2Cc3ccccc3Oc3ncccc32)cc1: inactive
Cc1ccc(C)c(Cn2c(=O)n(CC3CCC(C(=O)N4CCOCC4)CC3)c(=O)c3sccc32)c1 (configuration not stated): inactive
CNC(=O)C1CCC(Cn2c(=O)c3sccc3n(CC(=O)NCc3ccc(F)cc3)c2=O)CC1 (configuration not stated): inactive
CN(Cc1ccccc1)S(=O)(=O)c1ccc(F)c(C(=O)Nc2cccc(Cl)c2Cl)c1: inactive

Q: What classification did CCN(CC)c1ccc(NC(=O)CN2C(=O)c3cccnc3Sc3ccccc32)c(C)c1 end up with in this test?
A: active

---

The compounds listed here are annotated with their survival.
- System: DeltatarO mutant
- PROCEDURE DETAILS: S. aureus survival, RN4220 and DeltatarO strains – OD600, teichoic acid synthesis inhibitors, primary screen (AID 463173)
- EXPERIMENTAL CONDITIONS: S. aureus RN4220 wild type/DeltatarO growth, OD600, 18 h, hits give low values, screened at 18.75 µg/mL (by protocol)
Among all 52,000 compounds or so, about 4,300 (8.3%) were called active. The sample as a whole holds a higher share of actives than the screen did.
Give the number; % is assumed, so skip it.

CCCNS(=O)(=O)c1cc(-c2nn3c(C)nnc3c3ccccc23)ccc1C: 61
CCOC(=O)c1cnc2ccccc2c1NCCCO: 104
CCOc1ccc(Cn2c(CNS(=O)(=O)c3ccc([N+](=O)[O-])cc3)nc3cccnc32)cc1: 94
Cc1cccc(Nc2nc3nonc3nc2N/N=C\c2cccs2)c1C: 69
CCCN1CCc2nc(N3CCN(CC)CC3)ncc2C1: 72

Q: If you can, please state the reported survival value of O=C(Nc1ccc(F)c(F)c1)C(c1ccccc1)N1Cc2ccccc2C1=O (stereo not given) .
A: 102

Q: If you can, please state the reported survival value of CCOC(=O)c1cnc2c(Cl)c(Cl)ccc2c1NCCN1CCOCC1 .
A: 42

Q: If you can, please state the reported survival value of Cc1ccc(Cn2c(CNS(=O)(=O)c3ccc(Cl)s3)nc3cccnc32)cc1 .
A: 124

Q: If you can, please state the reported survival value of Brc1cccc(Nc2nc3nonc3nc2NCc2ccco2)c1 .
A: 6

Q: If you can, please state the reported survival value of O=C(CN1C(=O)COc2ccc(S(=O)(=O)N3CCCCCC3)cc21)N1CCN(c2cccc(Cl)c2)CC1 .
A: 95

Q: If you can, please state the reported survival value of Cc1cccc(NC(=O)c2sc(-n3nc(C)c(CCC(C)C)c3C)nc2C)c1C .
A: 62

Q: If you can, please state the reported survival value of O=C(Nc1ccccc1F)C(c1ccccc1)N1Cc2ccccc2C1=O (stereo not given) .
A: 72

Q: If you can, please state the reported survival value of CCOC(=O)c1cnc2c(C)cc(C)cc2c1NCCN1CCOCC1 .
A: 32

Q: If you can, please state the reported survival value of O=C(Nc1ccc(F)cc1)[C@@H](c1ccccc1)N1Cc2ccccc2C1=O .
A: 38

Q: If you can, please state the reported survival value of Cc1ccc(S(=O)(=O)n2nc(-c3ccccc3)nc2NCc2ccccc2Cl)cc1 .
A: 85

Q: If you can, please state the reported survival value of CC(=O)Nc1ccc(NC(=O)C(c2ccccc2)N2Cc3ccccc3C2=O)cc1 (stereo not given) .
A: 119

Q: If you can, please state the reported survival value of Ic1ccc(Nc2nc3nonc3nc2N/N=C\c2ccco2)cc1 .
A: 53

Q: If you can, please state the reported survival value of CCOC(=O)c1ccc(Nc2nc3ccc(C(=O)c4ccccc4)cc3n3c(C)nnc23)cc1 .
A: 109

Q: If you can, please state the reported survival value of CSc1cccc(NC(=O)C(c2ccccc2)N2Cc3ccccc3C2=O)c1 (stereo not given) .
A: 88

Q: If you can, please state the reported survival value of CC(C)CCNC(=O)[C@@H](c1ccccc1)N1Cc2ccccc2C1=O .
A: 12

Q: If you can, please state the reported survival value of CCOc1ccc(CCNC(=O)Cn2nnc(-c3ccc(C(F)(F)F)cc3)n2)cc1OCC .
A: 82

Q: If you can, please state the reported survival value of O=S(=O)(NCc1nc2cccnc2n1Cc1ccc(F)cc1)c1ccc(Cl)s1 .
A: -5

Q: If you can, please state the reported survival value of CCc1ccc(Cn2c(CNS(=O)(=O)c3ccc(F)c(Cl)c3)nc3cccnc32)cc1 .
A: 20

Q: If you can, please state the reported survival value of COc1ccc2[nH]cc(CCN=C(NC(=O)c3ccccc3F)Nc3nc(C)cc(C)n3)c2c1 .
A: 99

Q: If you can, please state the reported survival value of Cc1cccc(Nc2nc3nonc3nc2Nc2cccc(C)c2C)c1C .
A: 66
